Target: T1, D1 domain of human IL-2Rγ extracellular domain expressed with a C-terminal myc-myc-hexahistidine tag (human)
T1 construct: also called human IL2Rγ domain 1
T1 chain: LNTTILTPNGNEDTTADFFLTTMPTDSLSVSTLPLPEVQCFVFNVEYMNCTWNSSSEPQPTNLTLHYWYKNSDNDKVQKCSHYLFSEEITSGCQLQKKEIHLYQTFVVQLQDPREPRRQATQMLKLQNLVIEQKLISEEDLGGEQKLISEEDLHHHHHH
Assay: SPR, mAb captured on anti-hFc, 25 C
Criterion: 100 nM Ag Bound meeting or surpassing 2 RU. Met: yes (1). Not met: no (0).

BINDER	GROUP LABEL
H4H12871P (antibody, human IgG4 S228P, kappa, V domains shown, human IgG4; also called REGN9434) VH: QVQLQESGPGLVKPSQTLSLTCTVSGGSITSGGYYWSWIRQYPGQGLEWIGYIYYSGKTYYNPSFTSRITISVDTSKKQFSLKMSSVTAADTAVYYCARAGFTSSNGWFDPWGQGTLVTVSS VL: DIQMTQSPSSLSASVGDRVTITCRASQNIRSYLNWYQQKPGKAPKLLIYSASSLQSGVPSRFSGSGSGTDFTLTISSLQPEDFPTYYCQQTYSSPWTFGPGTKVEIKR	yes (1)
H4H12857P (antibody, human IgG4 S228P, kappa, V domains shown, human IgG4; also called REGN9432) VH: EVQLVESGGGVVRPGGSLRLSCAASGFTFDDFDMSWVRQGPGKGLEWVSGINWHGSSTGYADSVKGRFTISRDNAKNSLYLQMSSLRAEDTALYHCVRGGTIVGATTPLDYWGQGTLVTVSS VL: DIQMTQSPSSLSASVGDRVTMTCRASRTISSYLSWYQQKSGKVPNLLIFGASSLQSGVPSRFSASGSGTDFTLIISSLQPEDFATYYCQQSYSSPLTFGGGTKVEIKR	no (0)
H4H12900P (antibody, human IgG4 S228P, kappa, V domains shown, human IgG4) VH: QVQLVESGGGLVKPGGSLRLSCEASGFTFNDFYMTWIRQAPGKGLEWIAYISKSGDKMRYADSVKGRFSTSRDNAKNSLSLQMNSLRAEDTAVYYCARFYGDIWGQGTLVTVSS VL: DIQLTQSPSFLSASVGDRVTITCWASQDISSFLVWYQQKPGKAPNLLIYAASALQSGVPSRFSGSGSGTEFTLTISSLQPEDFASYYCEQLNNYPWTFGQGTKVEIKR	no (0)
H4H12889P (antibody, human IgG4 S228P, kappa, V domains shown, human IgG4; also called REGN7257) VH: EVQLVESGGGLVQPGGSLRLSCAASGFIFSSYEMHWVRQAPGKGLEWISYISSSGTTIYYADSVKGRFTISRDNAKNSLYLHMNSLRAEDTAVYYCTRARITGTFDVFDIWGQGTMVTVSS VL: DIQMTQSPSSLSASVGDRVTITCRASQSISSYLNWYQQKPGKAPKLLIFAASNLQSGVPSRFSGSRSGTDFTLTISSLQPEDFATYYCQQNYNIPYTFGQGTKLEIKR	yes (1)
H4H12884P (antibody, human IgG4 S228P, kappa, V domains shown, human IgG4) VH: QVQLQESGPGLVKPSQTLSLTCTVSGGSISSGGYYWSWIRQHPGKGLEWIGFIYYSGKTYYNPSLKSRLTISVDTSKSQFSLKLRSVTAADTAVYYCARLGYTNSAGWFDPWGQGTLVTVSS VL: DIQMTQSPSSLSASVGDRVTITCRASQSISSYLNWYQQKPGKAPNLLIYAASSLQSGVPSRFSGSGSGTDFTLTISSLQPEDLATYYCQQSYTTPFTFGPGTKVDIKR	yes (1)
